The measurements presented in this section are drawn from patent US10160724B2.

System: K. pneumoniae ATCC 29665
Experiment: In vitro antibiotic activity, agar dilution method (Mueller-Hinton agar, NCCLS)
Assay type: cell-based
Conditions: Klebsiella pneumoniae, ATCC29665; agar dilution, Mueller-Hinton agar; read-out: MIC for K. pneumoniae ATCC 29665
Description: To measure the antibiotic activity of the compounds prepared by Examples, antibiotic activity test in vitro was performed by agar dilution method using Mueller-Hinton agar according to the NCCLS (National Committee for Clinical Laboratory Standards. 2000. Methods for dilution antimicrobial susceptibility tests for bacteria that grow aerobiocally. Approved standard, NCCLS document M7-M5, 5th ed, vol 20, no 2. National Committee for Clinical Laboratory Standards, Wayne, Pa.). […]
Please respond with reported MIC for every item in the list.

Sample CC(C)CC#Cc1ccc(C2=CCN(CCC(C)(C(=O)NO)S(C)(=O)=O)CC2)cc1 (stereo not shown) — what was its MIC? 1 to 8 µg/mL

Same question for CCCC#Cc1ccc(C2=CCN(CCC(C)(C(=O)NO)S(C)(=O)=O)CC2)cc1 (stereo not shown) please. 1 to 8 µg/mL

Same question for CC(CCN1CC=C(C#CC#CCCCO)CC1)(C(=O)NO)S(C)(=O)=O (stereo not shown) please. > 16 µg/mL

Same question for CN(C)CC#Cc1ccc(C2=CCN(CCC(C)(C(=O)NO)S(C)(=O)=O)CC2)cc1F (stereo not shown) please. 1 to 8 µg/mL

Same question for COc1ccc(C#Cc2ccc(C3=CCN(CCC(C)(C(=O)NO)S(C)(=O)=O)CC3)cc2)cc1 (stereo not shown) please. 1 to 8 µg/mL

Same question for CN(C)CCCC#Cc1ccc(C2=CCN(CCC(C)(C(=O)NO)S(C)(=O)=O)CC2)cc1 (stereo not shown) please. 8 to 16 µg/mL

Now for another entry.
Sample CC(CCN1CC=C(c2ccc(-c3ccc(CN4CCOCC4)cc3)cc2)CC1)(C(=O)NO)S(C)(=O)=O (stereo not shown) — what was its MIC? < 1 µg/mL

====

tested on: K. pneumoniae ATCC 29665; experiment: In vitro antibiotic activity, agar dilution method (Mueller-Hinton agar, NCCLS); assay type: cell-based; details: Klebsiella pneumoniae, ATCC29665; agar dilution, Mueller-Hinton agar; read-out: MIC for K. pneumoniae ATCC 29665
Outcome Measure: MIC

Sample CCCCCc1ccc(-c2ccc(C3=CCN(CCC(C)(C(=O)NO)S(C)(=O)=O)CC3)cc2)cc1 (stereo not shown) [Example 67] — what was its MIC? > 16 µg/mL

Same question for CC(CCN1CC=C(c2ccc(-c3ccoc3)cc2)CC1)(C(=O)NO)S(C)(=O)=O (stereo not shown) [Example 63] please. < 1 µg/mL

Same question for COc1ccsc1-c1ccc(C2=CCN(CCC(C)(C(=O)NO)S(C)(=O)=O)CC2)cc1.Cl (stereo not shown) [Example 71] please. < 1 µg/mL

Go through the items and report each one's MIC.
1. CC(CCN1CC=C(c2ccc(-c3ccc(F)nc3)cc2)CC1)(C(=O)NO)S(C)(=O)=O (stereo not shown) [Example 62]
2. CC(CCN1CC=C(c2ccc(C#CCN3CCOCC3)cc2)CC1)(C(=O)NO)S(C)(=O)=O (stereo not shown) [Example 25]
3. CC(CCN1CC=C(c2ccc(C#CC#CCCO)c(F)c2)CC1)(C(=O)NO)S(C)(=O)=O (stereo not shown) [Example 43]
4. CC(CCN1CC=C(c2ccc(C#CC#CC3CC3)c(F)c2)CC1)(C(=O)NO)S(C)(=O)=O (stereo not shown) [Example 44]
5. CC(CCN1CC=C(c2ccc(C#CCCO)cc2)CC1)(C(=O)NO)S(C)(=O)=O (stereo not shown) [Example 5]
6. CN(C)CC#CC#Cc1ccc(C2=CCN(CCC(C)(C(=O)NO)S(C)(=O)=O)CC2)cc1 (stereo not shown) [Example 49]
7. CC(CCN1CC=C(c2ccc(-c3ccc(F)cc3)cc2)CC1)(C(=O)NO)S(C)(=O)=O (stereo not shown) [Example 58]

["1 to 8 µg/mL", "1 to 8 µg/mL", "1 to 8 µg/mL", "1 to 8 µg/mL", "8 to 16 µg/mL", "1 to 8 µg/mL", "1 to 8 µg/mL"]

====

test system: K. pneumoniae ATCC 29665; test: In vitro antibiotic activity, agar dilution method (Mueller-Hinton agar, NCCLS); type: cell-based; settings: Klebsiella pneumoniae, ATCC29665; agar dilution, Mueller-Hinton agar; read-out: MIC for K. pneumoniae ATCC 29665
Outcome Measure: MIC

Sample CCCCC#Cc1ccc(C2=CCN(CCC(C)(C(=O)NO)S(C)(=O)=O)CC2)cc1 (stereo not shown) [Example 6] — what was its MIC? 1 to 8 mg/L

Go through the items and report each one's MIC.
1. COc1ccc(-c2ccc(C3=CCN(CCC(C)(C(=O)NO)S(C)(=O)=O)CC3)cc2)cc1F (stereo not shown) [Example 60]
2. CC(CCN1CC=C(c2ccc(C#CC3CN(S(C)(=O)=O)C3)cc2)CC1)(C(=O)NO)S(C)(=O)=O (stereo not shown) [Example 41]
3. CC(CCN1CC=C(c2ccc(C#CCC3CCCCC3)cc2)CC1)(C(=O)NO)S(C)(=O)=O (stereo not shown) [Example 12]

1. 8 to 16 mg/L
2. 8 to 16 mg/L
3. 8 to 16 mg/L

====

system: K. pneumoniae ATCC 29665; experiment: In vitro antibiotic activity, agar dilution method (Mueller-Hinton agar, NCCLS); assay type: cell-based; settings: Klebsiella pneumoniae, ATCC29665; agar dilution, Mueller-Hinton agar; read-out: MIC for K. pneumoniae ATCC 29665
Outcome Measure: MIC

Examples with answers:
Sample CC(CCN1CC=C(c2ccc(-c3ccncc3)cc2)CC1)(C(=O)NO)S(C)(=O)=O (stereo not shown) [Example 55] — what was its MIC? 1 to 8 µg/mL

Same question for CC(CCN1CC=C(C#Cc2ccncc2)CC1)(C(=O)NO)S(C)(=O)=O (stereo not shown) [Example 52] please. > 16 µg/mL

Same question for CC(CCN1CC=C(c2ccc(-c3ccc(C#N)cc3)cc2)CC1)(C(=O)NO)S(C)(=O)=O (stereo not shown) [Example 66] please. 1 to 8 µg/mL

Go through the items and report each one's MIC.
1. CN1CC(C#Cc2ccc(C3=CCN(CCC(C)(C(=O)NO)S(C)(=O)=O)CC3)cc2)C1 (stereo not shown) [Example 39]
2. CC(CCN1CC=C(c2ccc(-c3ccc(S(C)(=O)=O)cc3)cc2)CC1)(C(=O)NO)S(C)(=O)=O (stereo not shown) [Example 64]
3. CN(C)CC#CC#Cc1ccc(C2=CCN(CCC(C)(C(=O)NO)S(C)(=O)=O)CC2)cc1F (stereo not shown) [Example 45]
4. CC(CCN1CC=C(c2ccc(C#Cc3ccc([N+](=O)[O-])cc3)cc2)CC1)(C(=O)NO)S(C)(=O)=O (stereo not shown) [Example 35]

["8 to 16 µg/mL", "1 to 8 µg/mL", "1 to 8 µg/mL", "> 16 µg/mL"]

Go through the items and report each one's MIC.
1. CC(CCN1CC=C(c2ccc(C#Cc3ccc(O)cc3)cc2)CC1)(C(=O)NO)S(C)(=O)=O (stereo not shown) [Example 37]
2. COCCCC#Cc1ccc(C2=CCN(CCC(C)(C(=O)NO)S(C)(=O)=O)CC2)cc1 (stereo not shown) [Example 28]
3. CC(CCN1CC=C(c2ccc(C#CC#CCCO)cc2)CC1)(C(=O)NO)S(C)(=O)=O (stereo not shown) [Example 47]
4. CC(CCN1CC=C(c2ccc(-c3cccnc3)cc2)CC1)(C(=O)NO)S(C)(=O)=O (stereo not shown) [Example 61]
5. CC(CCN1CC=C(c2ccc(-c3ccc(OS(C)(=O)=O)cc3)cc2)CC1)(C(=O)NO)S(C)(=O)=O (stereo not shown) [Example 69]
6. CC(CCN1CC=C(c2ccc(C#CC3CCCCC3)cc2)CC1)(C(=O)NO)S(C)(=O)=O (stereo not shown) [Example 10]

1: > 16 µg/mL; 2: < 1 µg/mL; 3: 1 to 8 µg/mL; 4: > 16 µg/mL; 5: < 1 µg/mL; 6: 8 to 16 µg/mL

Go through the items and report each one's MIC.
1. CC(O)C#Cc1ccc(C2=CCN(CCC(C)(C(=O)NO)S(C)(=O)=O)CC2)cc1 (stereo not shown) [Example 8]
2. CC(CCN1CC=C(c2ccc(C#CCCCCO)cc2)CC1)(C(=O)NO)S(C)(=O)=O (stereo not shown) [Example 29]
3. CC(CCN1CC=C(c2ccc(C#CCCCOC(N)=O)cc2)CC1)(C(=O)NO)S(C)(=O)=O (stereo not shown) [Example 27]

["> 16 µg/mL", "1 to 8 µg/mL", "1 to 8 µg/mL"]

====

tested on: K. pneumoniae ATCC 29665; experiment: In vitro antibiotic activity, agar dilution method (Mueller-Hinton agar, NCCLS); assay type: cell-based; conditions: Klebsiella pneumoniae, ATCC29665; agar dilution, Mueller-Hinton agar; read-out: MIC for K. pneumoniae ATCC 29665
Outcome Measure: MIC

Examples with answers:
Sample CC(CCN1CC=C(c2ccc(C#Cc3ccccc3)cc2)CC1)(C(=O)NO)S(C)(=O)=O (centres unmarked) — what was its MIC? 1 to 8 µg/mL

Same question for CC(CCN1CC=C(c2ccc(C#CC#CCCCO)c(F)c2)CC1)(C(=O)NO)S(C)(=O)=O (centres unmarked) please. 1 to 8 µg/mL

Same question for CC(CCN1CC=C(c2ccc(-c3ccc(O)cc3)cc2)CC1)(C(=O)NO)S(C)(=O)=O (centres unmarked) please. 8 to 16 µg/mL

Go through the items and report each one's MIC.
1. CC(CCN1CC=C(c2ccc(C#CC3CC3)cc2)CC1)(C(=O)NO)S(C)(=O)=O (centres unmarked)
2. CC(CCN1CC=C(c2ccc(C#Cc3cccs3)cc2)CC1)(C(=O)NO)S(C)(=O)=O (centres unmarked)
3. CC(=O)N1CC(C#Cc2ccc(C3=CCN(CCC(C)(C(=O)NO)S(C)(=O)=O)CC3)cc2)C1 (centres unmarked)
4. CCN(CC)CC#Cc1ccc(C2=CCN(CCC(C)(C(=O)NO)S(C)(=O)=O)CC2)cc1 (centres unmarked)
5. COCC#CC#Cc1ccc(C2=CCN(CCC(C)(C(=O)NO)S(C)(=O)=O)CC2)cc1 (centres unmarked)

< 1 µg/mL
1 to 8 µg/mL
1 to 8 µg/mL
1 to 8 µg/mL
1 to 8 µg/mL
